System: EKVX NSCLC
Test: NCI tumour cell line growth inhibition, 48 h; in the data active = GI50 below about 0.43 µM; inactive = the rest
Outcomes: active, inactive

smiles.str	group
FC(F)(F)c1ccc(Nc2nc(-c3c(C(F)(F)F)nc4ccccn34)cs2)cc1	active
COc1ccc(-c2c[nH]c(C(=O)O)c2-c2cc(OC)c(OC)c(OC)c2)cc1	inactive
C#Cc1c(F)ccc2cc(O)cc(-c3ncc4c(N5CC6CCC(C5)N6)nc(OC[C@@]56CCCN5C[C@H](F)C6)nc4c3F)c12	inactive
CCC[CH2][Sn]1([CH2]CCC)[O]C(=O)c2cccnc2[O]1	inactive
COc1cc(/C=C/C(=O)c2cccc(Nc3nc(Nc4ccccc4)nc(Nc4ccccc4)n3)c2)cc(OC)c1OC	inactive
O=C([CH-]C(=O)c1ccccc1)c1ccccc1.O=C([CH-]C(=O)c1ccccc1)c1ccccc1.[La+3].[OH-].[OH3+]	inactive
COc1ccc2[nH]c(O)c(N=NC(=O)c3oc4ccccc4c3C)c2c1	inactive
CN(CCCn1c2c(c3ccccc3c1=O)C(=O)c1ccccc1-2)CCCn1c2c(c3ccccc3c1=O)C(=O)c1ccccc1-2	inactive

====

System: A498 renal
Test: NCI tumour cell line growth inhibition, 48 h

compound	relation	TGI, µM
CC(C)OC(=O)c1ccc(NCc2cc(O)ccc2O)cc1Cl	>	75.9
CC(C)(C)c1ccc(Oc2nccc(-c3c(-c4ccc(F)cc4)ncn3C3CCNCC3)n2)cc1	=	7.49
CN(C)CCN1C(=O)c2ccccc2N(C)c2ccccc21	>	100
Nc1ncnn2c(C3OC(CO)C(O)C3O)ccc12 (stereo unspecified)	=	0.539
CCOC(=O)P(=O)(O)c1ccc(N(C)Cc2ccccc2)cc1	>	100
COC(=O)[C@@H]1CN(C(C)=O)C(=O)N1	>	100
COc1cnc2c(c1)C(=O)c1c-2n(CCCn2ccnc2)c(=O)c2cc(F)ccc12	=	0.218
CCOC(=O)c1cccn1S(=O)(=O)c1cc(Cl)ccc1NC(=O)CC	>	100
Clc1ccc(C2SCc3nc4ccccc4n32)c(Cl)c1 (stereo unspecified)	=	28.4
COC(=O)C1(C(=O)OC)Cc2ccc(OC)cc2C2=C1C(=O)c1ccccc1C2=O	=	41.8
O=C1Nc2ccccc2/C1=C/C(=O)c1coc2c1C(=O)c1ccccc1C2=O	>	100

====

Test system: ACHN renal
Assay: NCI tumour cell line growth inhibition, 48 h

compound	TGI
NC(=O)N/N=C(\CC1OC(=O)c2ccccc21)c1ccco1 (stereo unspecified)	> 100 µM
COc1ccc2cc(C(=O)/C=C/c3ccc(Cl)cc3Cl)ccc2c1	51.3 µM
O=c1c2c(oc3ccccc13)-c1ccccc1OC2	> 100 µM
COC(=O)C1(C)CCC(c2ccc(C)cc2)=C(CC(=O)O)C1 (stereo unspecified)	> 100 µM
N#CC(NC12CC3CC(CC(C3)C1)C2)c1ccc2c(c1)OCO2 (stereo unspecified)	> 100 µM
COC(=O)C1(CCC(C)=O)CCCCCC1=O (stereo unspecified)	> 100 µM
Clc1ccc(NCc2nnc(CCCCCCCCc3nnc(CNc4ccc(Cl)cc4)o3)o2)cc1	> 100 µM
CC(=O)NC1C(OCc2ccccc2)OC(CO)C(O)C1OC(C)C(=O)NC(C(=O)N[C@@H](CCC(=O)NCCNCCNc1c2ccccc2nc2cccc([N+](=O)[O-])c12)C(N)=O)C(C)C (stereo partly specified)	73.5 µM
CCN(CC)CCCCNc1c2ccccc2[n+](C)c2c1[nH]c1ccccc12	> 47.3 µM
OC(c1ccccc1)(c1ccccc1)c1ccncc1	> 100 µM
CCc1n[nH]c(=O)n1/N=C/c1c(O)ccc2ccccc12	> 100 µM
Nc1ncnn2c(C3OC(CO)C(O)C3O)ccc12 (stereo unspecified)	0.645 µM
Cn1c2ccccc2n2c(N=O)c(-c3ccccc3)nc12	> 100 µM
O=[N+]([O-])/C(C(Cl)=C(Cl)Cl)=C(\N1CCOCC1)n1nnc2ccccc21	34.9 µM
CCC1C2Cc3ccc(O)cc3C1(CC)CCN2C (stereo unspecified)	> 100 µM
CC(C)=CCC/C(C)=C/CC/C(C)=C/CC/C(C)=C/C=C/C=C(\C)CC/C=C(\C)CC/C=C(\C)CCC=C(C)C	53 µM
CCN(CC)c1c(C(=O)/C=C/c2ccc(OC)cc2)c(-c2ccccc2)nn(C)c1=O	> 100 µM
Cc1ccc(S(=O)(=O)N/N=C/c2c(O)ccc3ccccc23)cc1	> 100 µM
COc1cc(NC(C)CCCNC2CN3CCC2CC3)c2ncccc2c1 (stereo unspecified)	29.3 µM
COc1ccc(-c2c(C#N)c(N)n(C3OCC(OC(C)=O)C(OC(C)=O)C3OC(C)=O)c(=S)c2C#N)cc1 (stereo unspecified)	> 100 µM
CCOC(CN(C)C(=O)Nc1cccc2ccccc12)OCC	> 10 µM

====

Item-by-item account of GI50
Test system: SK-OV-3 ovarian
Experiment: NCI tumour cell line growth inhibition, 48 h

compound	assay.system	GI50
C(#Cc1ccccc1C#Cc1cccs1)c1cccs1	SK-OV-3 ovarian	33.9 µM
COc1ccc(-c2cc(=O)[nH]c3c(OC)c4ccccc4c(OC)c23)cc1	SK-OV-3 ovarian	0.606 µM
Fc1ccc2c(c1)C1=NN(c3ccccc3)C(F)C1CO2 (stereo not given)	SK-OV-3 ovarian	25.3 µM
CCC[CH2][Sn]1([CH2]CCC)[O]C(=O)c2cccnc2[O]1	SK-OV-3 ovarian	10 µM
COc1ccc(-c2nc(-c3nc4ccc(OC)cc4[nH]3)c3ccccn23)cc1	SK-OV-3 ovarian	36.1 µM
CN(CCCn1c2c(c3ccccc3c1=O)C(=O)c1ccccc1-2)CCCn1c2c(c3ccccc3c1=O)C(=O)c1ccccc1-2	SK-OV-3 ovarian	5.45 µM
O=C([CH-]C(=O)c1ccccc1)c1ccccc1.O=C([CH-]C(=O)c1ccccc1)c1ccccc1.[La+3].[OH-].[OH3+]	SK-OV-3 ovarian	21.3 µM
Nc1c(C(=O)c2cccc(-c3ccncc3)c2)cnn1-c1ccc(F)cc1F	SK-OV-3 ovarian	19.8 µM
CCCCCCCCCCCCCCCCCCOc1ccccc1CC(=O)OCC[N+]1(C)CCCCC1	SK-OV-3 ovarian	18.2 µM
CC(C)(C)c1ccc(Oc2nccc(-c3c(-c4ccc(F)cc4)ncn3C3CCNCC3)n2)cc1	SK-OV-3 ovarian	4.35 µM

====

Test system: UACC-62 melanoma
Experiment: NCI tumour cell line growth inhibition, 48 h; in the data active = GI50 below about 0.43 µM; inactive = the rest
Outcomes: active, inactive

compound	group
COc1c(C)c2c(c(O)c1C/C=C(\C)CCC(=O)O)C(=O)OC2	inactive
CN[C@@H](C)C(=O)N[C@H](C(=O)N1CCC[C@H]1C(=O)Nc1snnc1-c1ccccc1)C1CCCCC1	inactive
C=C1CCC2C3(C)COC(c4ccc(N(C)C)cc4)OC3CCC2(C)C1C/C=C1/C(=O)OCC1O (centres undefined)	inactive
Cc1nn2c(/C=C3\C(=O)Nc4ccc(Cl)cc43)c(C)nc2s1	inactive
CC(C)(C)c1ccc(Oc2nccc(-c3c(-c4ccc(F)cc4)ncn3C3CCNCC3)n2)cc1	inactive
COc1cc2c(c(OC)c1OC)-c1ccc(SC)c(=O)cc1C(CO)C2 (centres undefined)	active
COc1cc(/C=C/C(=O)c2cccc(Nc3nc(Nc4ccccc4)nc(Nc4ccccc4)n3)c2)cc(OC)c1OC	inactive
CCC[CH2][Sn]1([CH2]CCC)[O]C(=O)c2cccnc2[O]1	inactive
CN(CCCn1c2c(c3ccccc3c1=O)C(=O)c1ccccc1-2)CCCn1c2c(c3ccccc3c1=O)C(=O)c1ccccc1-2	inactive

====

System: M14 melanoma
Test: NCI tumour cell line growth inhibition, 48 h
*1 amine or outer side, *2 acyl side, *3 side chain or, on linkers, in order; H or OH if unused. Where a SMILES comes first, the peptide text is derived from it. [ ]: non-standard residue; d: D form. The star is where a group is joined. X31 = CC(=O)N(C)SCC(N[*:1])C(=O)[*:2]; Cbz = O=C(OCc1ccccc1)*; Bn = c1ccc(C*)cc1; For = O=C*

compound	TGI
C=CCN1C(=O)/C(=C/c2ccc(OC)cc2)N=C1SC/C=C/C	> 100 µM
COc1cc2c(c(O)c1OC)-c1c(cc(OC)c(OC)c1OC)CC(C)C(C)C2 (stereo not given)	> 100 µM
C=C1C(=O)O[C@H]2[C@H]1CC/C(COC(=O)NCc1cn(C)c3ccccc13)=C\CC[C@@]1(C)O[C@@H]21	2.92 µM
Cn1cc2ccccc2c1-c1nc(F)nc(F)n1	> 100 µM
CSc1nc(C#N)c(/N=C\N(C)C)n1C	> 100 µM
CSc1ccc(C(=C=C=C(c2ccc(SC)s2)c2ccc(SC)s2)c2ccc(SC)s2)s1	> 10 µM
CC(CCN)(CCN)[N+](=O)[O-]	> 100 µM
C=Cc1ccc(C)[n+](C[Si](C)(C)O[Si](C)(C)C)c1	> 100 µM
CC(C)OC(=O)c1ccc(NCc2cc(O)ccc2O)cc1Cl	> 100 µM
CC(=O)N(C)SCC(NC(=O)C(Cc1ccccc1)NC(=O)OCc1ccccc1)C(=O)NC(Cc1ccccc1)C(=O)NC(Cc1cn(C=O)c2ccccc12)C(=O)NC(CCCCNC(=O)OCc1ccccc1)C(=O)NC(C(=O)NC(CSN(C)C(C)=O)C(=O)NC(C(N)=O)C(C)OCc1ccccc1)C(C)OCc1ccccc1 (stereo not given) (Cbz-F[X31]FW(For)K(Cbz)T(Bn)[X31]T(Bn)-NH2; configuration not given here)	> 100 µM
CCCCCCCCCCCCCCCCCCNC(=O)C(N)Cc1ccc(OCc2ccccc2)cn1 (stereo not given)	33.3 µM
COc1cc(/C=C/C(=O)c2cccc(Nc3nc(Nc4ccccc4)nc(Nc4ccccc4)n3)c2)cc(OC)c1OC	> 100 µM
CC(C)N(Cc1ccccc1)c1c(S)ssc1=S	> 100 µM
CCOC(=O)N1CCN(C=S)CC1	> 100 µM
CN(C)CC/C(=N\Nc1ccc([N+](=O)[O-])cc1)c1ccccc1	30.8 µM
CCN(CC)CCCCNc1c2ccccc2[n+](C)c2c1[nH]c1ccccc12	4.64 µM
O=C(Nc1ccc(Cl)cc1)c1cc2cc(N=Nc3ccccc3Cl)ccc2oc1=O	55 µM
COc1ccc2c(c1)c(=O)oc1cc(OC/C(C)=N\O)ccc12	> 100 µM
O=C1NC2ON=C(c3ccccc3)C2C2ON=C(c3ccccc3)N12 (stereo not given)	> 100 µM
Oc1ccccc1/C=C/c1csnn1	> 100 µM
Cc1c(C(N)=O)sc2c1C(=O)N(Cc1ccccc1)C1=NN=C(c3ccc(Cl)cc3)CN12	6.75 µM
COc1cc(NC(C)CCCNC2CN3CCC2CC3)c2ncccc2c1 (stereo not given)	13.5 µM
O=C(Nc1ccc(Cl)cc1)NS(=O)(=O)c1coc2cc(F)ccc2c1=O	> 100 µM
O=c1c2c(oc3ccccc13)-c1ccccc1OC2	> 100 µM
CC(=O)OC1COC(n2c(O)c(N=NC(N)=S)c3cc(Br)ccc32)C(OC(C)=O)C1OC(C)=O (stereo not given)	> 100 µM
C[N+](C)(C)CC(=O)N/N=C/c1oc(-c2c(O)ccc3ccccc23)c(-c2c(O)ccc3ccccc23)c1[N+](=O)[O-]	37.2 µM
CCc1cc(C(=O)OC)cn1C(=N)c1ccc(Cl)cc1	> 100 µM
Cn1cc(C(=O)NCCC(=N)N)cc1NC(=O)C1=[N+](C)C=C(NC(=O)c2cccc(C(=O)NC3=CC(C(=O)Nc4cc(C(=O)NCCC(=N)N)cn4C)=[N+](C)C3)c2)C1	> 100 µM
NN(CC(=O)O)CC(=O)O	> 100 µM
[N-]=[N+]=Nc1ccccc1C(=O)N1C(=O)c2ccccc2C(=O)N(C(=O)c2ccccc2N=[N+]=[N-])c2ccccc21	> 100 µM
CCSc1[nH]c(NC(=S)NC(=O)c2ccccc2Cl)c(C(N)=O)c1C(N)=O	> 10 µM
Nc1ncnn2c(C3OC(CO)C(O)C3O)ccc12 (stereo not given)	0.413 µM
COC(=O)/C(C)=C(/CCC1(C)OCCO1)O[Si](C)(C)C	> 100 µM
CCC1C2Cc3ccc(O)cc3C1(CC)CCN2C (stereo not given)	> 100 µM
Cc1ccc(S(=O)(=O)N/N=C/c2c(O)ccc3ccccc23)cc1	64.9 µM
CC(C)[C@H](N)C(=O)N1CCC[C@H]1B(O)O	> 100 µM
O=C1/C(=C/c2cccc(F)c2)CCCc2ccccc21	26.8 µM
O=C1CCC2C(O)c3cc4c(cc3C(c3ccc5c(c3)OCO5)N12)OCO4 (stereo not given)	> 100 µM
CC(=O)OCC1OC(n2cnc(C(N)=S)c2N)C(OC(C)=O)C1OC(C)=O (stereo not given)	> 100 µM
C=CCNC(=O)NC(=O)CSC1=NNC2(C(=O)N1)c1ccccc1-c1ccccc12	> 10 µM
